# methodDescription: Antioxidant activity assessed as ABTS radical scavenging activity incubated for 10 mins in dark
# Type: functional
Recorded IC50 by entry
# output: bare number, implied unit nM

{"compound": "COc1ccccc1/C=C/c1cc(=O)c(O)co1", "readoutNumber": 3470}

Query: For the compound shown here, Cc1c(C)c2c(c(C)c1O)CCC(C)(C(=O)O)O2 (configuration not stated) , give the reported IC50.
Reply: 3890

Query: Another: O=c1cc(/C=C/c2ccccc2O)occ1O
Reply: 1180

Query: How about this compound: O=c1cc(/C=C/c2ccc(Cl)cc2)occ1O
Reply: 1950

Query: Cool, now COc1cc(/C=C/c2cc(=O)c(O)co2)cc(OC)c1
Reply: 1790

Query: Okay, and O=c1cc(/C=C/c2cc(O)cc(O)c2)occ1O ?
Reply: 1190

Query: Queued: CN(C)c1ccc(/C=C/c2cc(=O)c(O)co2)cc1
Reply: 3050
